- Test system: PF3D7_0420300 AP2 domain 1 (GST-tagged)
- Procedure text: gcPBM binding intensity (ln(normalized median fluorescence intensity)); higher = stronger DNA binding
The full ranking holds about 25,000 sequences; the median of “ln(normalized median fluorescence intensity)” is about 9.3, and the highest 2% start at about 10. This excerpt belongs to a sample that is enriched for the highest values.
A collection of sequences and their measured gcPBM binding intensity (ln)

{"Record sequence": "AACATTATAAGACACACACACACATATATAAATATA [CACACA_site6622]", "gcPBM binding intensity (ln)": 10.3}
{"Record sequence": "AAAAAAAAAAAACATACACACATACATACATATATA [CACACA_site8222]", "gcPBM binding intensity (ln)": 9.82}
{"Record sequence": "TGAAAAAAGAAAAATACACACATATAACATAATATA [CACACA_site7126]", "gcPBM binding intensity (ln)": 9.83}
{"Record sequence": "AAAAAGAAAAAACTTACACACATATATACCCCCATG [CACACA_site4463]", "gcPBM binding intensity (ln)": 10.2}
{"Record sequence": "AACATTATAAGACACACACACACATATATATATATA [CACACA_site8259]", "gcPBM binding intensity (ln)": 10.1}
{"Record sequence": "TTTCTTTTTTTTTTTATTTACCTGAATTATGTATTA [TGCATGCA_negctrl_site345]", "gcPBM binding intensity (ln)": 9.24}
{"Record sequence": "TTTTTATGAATTCTTTTGTTAATAATAATATGTTGT [TGCATGCA_negctrl_site198]", "gcPBM binding intensity (ln)": 9.19}
{"Record sequence": "TATATTTATTATAACACACACATATAAATATTATAG [CACACA_site6726]", "gcPBM binding intensity (ln)": 9.67}
{"Record sequence": "AAAAAAAAAAAAAACACACACATACACCCAAAAATG [CACACA_site4223]", "gcPBM binding intensity (ln)": 9.84}
{"Record sequence": "CTATATGTATAAAGTTGTACAGTTTTTCAAAGTTAA [XGTACX_site6652]", "gcPBM binding intensity (ln)": 9.03}
{"Record sequence": "TATCTTATGTCTGAAAGTACAAATTTTTTTCTACTT [XGTACX_site2208]", "gcPBM binding intensity (ln)": 9.09}
{"Record sequence": "AAACATAAGAGACACACACACATATATAAATAAATA [CACACA_site7674]", "gcPBM binding intensity (ln)": 10.2}
{"Record sequence": "TATTCCCCCAAACACACACACACACCCACATACCAC [CACACA_site2304]", "gcPBM binding intensity (ln)": 10.3}
{"Record sequence": "CACAATGGTTTATATACACACTGTTGCAAATTCTTC [CACACA_site5659]", "gcPBM binding intensity (ln)": 9.45}
{"Record sequence": "ATAAATATAGGACACACACACATATTATATATATAT [CACACA_site5658]", "gcPBM binding intensity (ln)": 10.1}
{"Record sequence": "GTAAGAAACAGACACACACACATATAAATATAAATA [CACACA_site6515]", "gcPBM binding intensity (ln)": 10.1}
{"Record sequence": "AAAAAAAAAAAAAACACACACACACCCAAATACATA [CACACA_site708]", "gcPBM binding intensity (ln)": 9.87}
{"Record sequence": "TAATAAATAGGACACACACACATATATATATATTAT [CACACA_site4891]", "gcPBM binding intensity (ln)": 10.1}
{"Record sequence": "AAAAAAAAAAAAAAAACACACACATACACCCAAAAA [CACACA_site7910]", "gcPBM binding intensity (ln)": 9.69}
